Give log10 Kd for every item shown.
TARGET_OF_ASSAY: T1, extracellular domain (ECD) of human epidermal growth factor receptor 2 (HER2) (Homo sapiens, UniProt P04626)
T1 construct: human epidermal growth factor receptor 2 (HER2), extracellular domain; also called HER2/ECD
EXPERIMENT: SPR; BIAcore T200; HER2/ECD immobilised on a CM5 chip by amine coupling to 1000 RU; IgG flowed in PBST (0.05% Tween 20) at 30 uL/min; regeneration 10 mM glycine pH 1.5; global fit to a 1:1 binding model
TEST_CONDITIONS: both partners purified
Scale: decimal log of Kd, Kd in nM.

**Q:** Recorded log10 Kd for GH2-98 IgG (antibody, V domains shown, source: HEK293-F, transient transfection, purified (Protein A, Superdex 200)) VH: EVQLVESGGGLVQPGGSLRLSCAASGFTINNYGIHWVRQAPGKGLEWVAGIGPSWGFTYYADSVKGRFTISADTSKNTAYLQMNSLRAEDTAVYYCARFGFYNDGFMDYWGQGTLVTVSS VL: DIQMTQSPSSLSASVGDRVTITCRASQDVGSGVAWYQQKPGKAPKLLIYFSASLYSGVPSRFSGSGSGTDFTLTISSLQPEDFATYYCQQYYNWPLTFGQGTKVEIK , please?
**A:** 1.95

**Q:** Given the entry GH2-81 IgG (antibody, V domains shown, source: HEK293-F, transient transfection, purified (Protein A, Superdex 200)) VH: EVQLVESGGGLVQPGGSLRLSCAASGFTINDYGIHWVRQAPGKGLEWVAGIGPFGGYTSYADSVKGRFTISADTSKNTAYLQMNSLRAEDTAVYYCARFGVLFDGVMDYWGQGTLVTVSS VL: DIQMTQSPSSLSASVGDRVTITCRASQDVNDGVAWYQQKPGKAPKLLISFTTGLYSGVPSRFSGSGSGTDFTLTISSLQPEDFATYYCQQYYNWPITFGQGTKVEIK , report its measured log10 Kd.
**A:** 1.13

**Q:** // log10 Kd lookup, key: GH2-72 IgG (antibody, V domains shown, source: HEK293-F, transient transfection, purified (Protein A, Superdex 200)) VH: EVQLVESGGGLVQPGGSLRLSCAASGFTISNGGIHWVRQAPGKGLEWVAYIWPSGGYTFYADSVKGRFTISADTSKNTAYLQMNSLRAEDTAVYYCARFFNNDWIGMDYWGQGTLVTVSS VL: DIQMTQSPSSLSASVGDRVTITCRASQDVGYFVAWYQQKPGKAPKLLISGTTWLYSGVPSRFSGSGSGTDFTLTISSLQPEDFATYYCQQYSNWPLTFGQGTKVEIK
**A:** 1.08

**Q:** # input binder: GH2-42 IgG (antibody, V domains shown, source: HEK293-F, transient transfection, purified (Protein A, Superdex 200)) VH: EVQLVESGGGLVQPGGSLRLSCAASGFTISNWGIHWVRQAPGKGLEWVAGIGPYGGYTSYADSVKGRFTISADTSKNTAYLQMNSLRAEDTAVYYCARFGFYFDGIMDYWGQGTLVTVSS VL: DIQMTQSPSSLSASVGDRVTITCRASQDVSSGVAWYQQKPGKAPKLLISGPTGLYSGVPSRFSGSGSGTDFTLTISSLQPEDFATYYCQQYYDWPLTFGQGTKVKRG ; wanted: its log10 Kd
**A:** -0.77

**Q:** Recorded log10 Kd for GH2-66 IgG (antibody, V domains shown, source: HEK293-F, transient transfection, purified (Protein A, Superdex 200)) VH: EVQLVESGGGLVQPGGSLRLSCAASGFTIGNWGIHWVRQAPGKGLEWVAYIWPYWGFTYYADSVKGRFTISADTSKNTAYLQMNSLRAEDTAVYYCARFLDWNLLWMDYWGQGTLVTVSS VL: DIQMTQSPSSLSASVGDRVTITCRASQDVYSYVAWYQQKPGKAPKLLISYASGLYSGVPSRFSGSGSGTDFTLTISSLQPEDFATYYCQQYYNSPITFGQGTKVEIK , please?
**A:** 1.74
